Data provenance is the Human Domainome abundance scans (Beltran et al. 2025).

B1: Intersectin-2, residues 1129 to 1183; numbered along this chain, Q9NZM3 (parent)
chain: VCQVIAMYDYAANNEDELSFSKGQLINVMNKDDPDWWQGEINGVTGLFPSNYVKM

Variants of: B1
Experiment: abundance fitness (aPCA) (normalised: wild type 0, dead -1); higher = more abundant; growth selection in yeast, the domain comes from the species named
Settings: Homo sapiens
endpoint.name: abundance fitness
Numbers only.

In the examples that follow, each entry is paired with its recorded abundance fitness.
[[record]]
variant_description = "V53H"
endpoint_name = "abundance fitness"
measured_value = -0.477

[[record]]
variant_description = "D35L"
endpoint_name = "abundance fitness"
measured_value = -0.029

[[record]]
variant_description = "I5A"
endpoint_name = "abundance fitness"
measured_value = -0.121

[[record]]
variant_description = "E15K"
endpoint_name = "abundance fitness"
measured_value = -0.048

[[record]]
variant_description = "W36P"
endpoint_name = "abundance fitness"
measured_value = -1.03

[[record]]
variant_description = "Q3C"
endpoint_name = "abundance fitness"
measured_value = -0.066

[[record]]
variant_description = "Y8C"
endpoint_name = "abundance fitness"
measured_value = -0.011

[[record]]
variant_description = "D9M"
endpoint_name = "abundance fitness"
measured_value = -0.177


Consider the following items and state reported abundance fitness for each.
1. V28L
2. A6Q
3. W37L
4. V53C
5. T45S
6. I26K
7. A11N

[reply]
1. -0.048
2. -0.966
3. -0.384
4. -0.054
5. -0.003
6. -0.972
7. -0.016
